biological target: DNA topoisomerase 2-alpha (Homo sapiens); assay: Inhibition of human topoisomerase-2 alpha at 100 uM using supercoiled pBR322 DNA as substrate after 30 mins by agarose gel electrophoresis method relative to control
parameter measured: inhibition

>>> df
                                   compound  parameter_measured  obs_value
0  CCCCOc1cc(OCC2CO2)cc2oc3c(OC)cccc3c(=O)c12 (stereo not given)          inhibition      14.1%
1  CCCCNCC(O)COc1cc(OCc2cccc(OC)c2)c2c(=O)c3cccc(OC)c3oc2c1 (stereo not given)          inhibition      41.6%
2  CCCCCOc1cc(OCC2CO2)cc2oc3c(OC)cccc3c(=O)c12 (stereo not given)          inhibition         5%
3  CCCCNCC(O)COc1cc(OC(C)C)c2c(=O)c3ccccc3oc2c1 (stereo not given)          inhibition       1.5%
4  COc1ccc(COc2cc(OCC3CO3)cc3oc4ccccc4c(=O)c23)cc1 (stereo not given)          inhibition         0%
5  COc1cccc2c(=O)c3c(OC(C)C)cc(OCC4CO4)cc3oc12 (stereo not given)          inhibition       1.5%
6  COc1cccc(COc2cc(OCC3CO3)cc3oc4ccccc4c(=O)c23)c1 (stereo not given)          inhibition         0%
7  CCCCNCC(O)COc1cc(OCC)c2c(=O)c3cccc(OC)c3oc2c1 (stereo not given)          inhibition      10.7%
8  CCCCNCC(O)COc1cc(OCC)c2c(=O)c3ccccc3oc2c1 (stereo not given)          inhibition       4.8%
9  CCCCNCC(O)COc1cc(OCCc2cccc(Cl)c2)c2c(=O)c3ccccc3oc2c1 (stereo not given)          inhibition      46.2%

* * *

biological target: DNA topoisomerase 2-alpha (Homo sapiens, UniProt P11388); assay: Inhibition of human topoisomerase-2 alpha at 100 uM using supercoiled pBR322 DNA as substrate after 30 mins by agarose gel electrophoresis method relative to control
Sequence (P11388 whole entry): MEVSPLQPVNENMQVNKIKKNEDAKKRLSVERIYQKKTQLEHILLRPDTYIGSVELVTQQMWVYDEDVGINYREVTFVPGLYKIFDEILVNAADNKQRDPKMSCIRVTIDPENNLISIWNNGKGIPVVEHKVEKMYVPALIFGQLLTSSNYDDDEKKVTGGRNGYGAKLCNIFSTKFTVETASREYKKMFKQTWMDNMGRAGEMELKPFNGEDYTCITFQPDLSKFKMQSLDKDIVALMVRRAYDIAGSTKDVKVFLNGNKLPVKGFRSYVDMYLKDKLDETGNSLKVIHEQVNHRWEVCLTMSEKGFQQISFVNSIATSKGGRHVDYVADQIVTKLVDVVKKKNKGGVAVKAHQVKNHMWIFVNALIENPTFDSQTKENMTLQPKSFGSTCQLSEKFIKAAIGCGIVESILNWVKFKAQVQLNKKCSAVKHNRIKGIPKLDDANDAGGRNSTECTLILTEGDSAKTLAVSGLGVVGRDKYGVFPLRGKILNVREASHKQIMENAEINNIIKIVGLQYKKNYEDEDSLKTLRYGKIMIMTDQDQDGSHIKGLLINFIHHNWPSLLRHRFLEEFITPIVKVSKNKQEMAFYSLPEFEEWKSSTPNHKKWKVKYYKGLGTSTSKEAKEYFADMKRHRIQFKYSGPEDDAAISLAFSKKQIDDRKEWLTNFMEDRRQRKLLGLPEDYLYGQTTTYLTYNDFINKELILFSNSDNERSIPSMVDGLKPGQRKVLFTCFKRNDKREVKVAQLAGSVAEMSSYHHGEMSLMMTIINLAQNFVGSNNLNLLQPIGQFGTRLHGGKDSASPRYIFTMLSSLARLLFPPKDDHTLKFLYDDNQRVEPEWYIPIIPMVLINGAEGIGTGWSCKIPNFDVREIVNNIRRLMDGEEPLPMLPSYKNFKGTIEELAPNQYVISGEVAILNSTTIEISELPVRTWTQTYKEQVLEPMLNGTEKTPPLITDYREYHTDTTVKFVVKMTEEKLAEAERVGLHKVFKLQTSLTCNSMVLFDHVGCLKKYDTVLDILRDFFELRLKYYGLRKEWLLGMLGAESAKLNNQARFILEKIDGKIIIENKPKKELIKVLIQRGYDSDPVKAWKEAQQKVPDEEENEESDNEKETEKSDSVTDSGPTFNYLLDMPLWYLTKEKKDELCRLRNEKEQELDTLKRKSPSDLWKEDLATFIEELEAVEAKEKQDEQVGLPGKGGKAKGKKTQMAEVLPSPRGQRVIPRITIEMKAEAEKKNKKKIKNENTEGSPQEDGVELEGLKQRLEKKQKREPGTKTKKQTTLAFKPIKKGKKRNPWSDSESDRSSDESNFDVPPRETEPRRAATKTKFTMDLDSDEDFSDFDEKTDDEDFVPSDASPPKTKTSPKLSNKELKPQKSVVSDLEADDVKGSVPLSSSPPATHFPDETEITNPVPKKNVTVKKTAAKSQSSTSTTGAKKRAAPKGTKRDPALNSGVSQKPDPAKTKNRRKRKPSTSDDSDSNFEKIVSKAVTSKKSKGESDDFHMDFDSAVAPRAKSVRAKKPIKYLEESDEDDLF
inhibition values for the molecules below.
parameter measured: inhibition (%)

In [3]: df
Out[3]:
                                   molecule  parameter_measured  obs_value
0  CCCCNCC(O)COc1cc(OCc2ccc(OC)cc2)c2c(=O)c3ccccc3oc2c1 (stereo not given)          inhibition       55.9
1  O=c1c2ccccc2oc2cc(OCC3CO3)cc(OCCc3ccc(Cl)cc3)c12 (stereo not given)          inhibition          0
2  CCCCNCC(O)COc1cc(OCc2cccc(Cl)c2)c2c(=O)c3cccc(OC)c3oc2c1 (stereo not given)          inhibition       45.4
3  CCCCNCC(O)COc1cc(OCc2cccc(OC)c2)c2c(=O)c3ccccc3oc2c1 (stereo not given)          inhibition       58.7
4  CCCCNCC(O)COc1cc(OCc2ccccc2)c2c(=O)c3cccc(OC)c3oc2c1 (stereo not given)          inhibition       51.6
5  CCCCNCC(O)COc1cc(OCc2cccc(C(F)(F)F)c2)c2c(=O)c3ccccc3oc2c1 (stereo not given)          inhibition       64.6
6  CCCCNCC(O)COc1cc(OCCCC)c2c(=O)c3ccccc3oc2c1 (stereo not given)          inhibition       27.1
7  CC(C)Oc1cc(OCC2CO2)cc2oc3ccccc3c(=O)c12 (stereo not given)          inhibition        0.1
8  CCCCNCC(O)COc1cc(OCCc2cccc(Cl)c2)c2c(=O)c3cccc(OC)c3oc2c1 (stereo not given)          inhibition       62.8
9  CCCCNCC(O)COc1cc(OC(C)C)c2c(=O)c3cccc(OC)c3oc2c1 (stereo not given)          inhibition        7.5
